Reference source for all entries: BigSolDB 2.1

- MEASUREMENT_CONDITIONS: in toluene, 323.15 K
PROPERTY: solubility (mole fraction)
One number for each entry.

Problem: May I ask what solubility (mole fraction) has been recorded for `O=C(O)c1cccnc1Nc1cccc(C(F)(F)F)c1` ?
Solution: 0.0133
